Origin of the recorded values: ChEMBL document CHEMBL4804281

The compounds listed here are annotated with their inhibition.
- target-system: Ribosomal protein S6 kinase alpha-2 (Homo sapiens) (UniProt Q15349)
- Sequence (Q15349 whole entry, the tested form may be a part): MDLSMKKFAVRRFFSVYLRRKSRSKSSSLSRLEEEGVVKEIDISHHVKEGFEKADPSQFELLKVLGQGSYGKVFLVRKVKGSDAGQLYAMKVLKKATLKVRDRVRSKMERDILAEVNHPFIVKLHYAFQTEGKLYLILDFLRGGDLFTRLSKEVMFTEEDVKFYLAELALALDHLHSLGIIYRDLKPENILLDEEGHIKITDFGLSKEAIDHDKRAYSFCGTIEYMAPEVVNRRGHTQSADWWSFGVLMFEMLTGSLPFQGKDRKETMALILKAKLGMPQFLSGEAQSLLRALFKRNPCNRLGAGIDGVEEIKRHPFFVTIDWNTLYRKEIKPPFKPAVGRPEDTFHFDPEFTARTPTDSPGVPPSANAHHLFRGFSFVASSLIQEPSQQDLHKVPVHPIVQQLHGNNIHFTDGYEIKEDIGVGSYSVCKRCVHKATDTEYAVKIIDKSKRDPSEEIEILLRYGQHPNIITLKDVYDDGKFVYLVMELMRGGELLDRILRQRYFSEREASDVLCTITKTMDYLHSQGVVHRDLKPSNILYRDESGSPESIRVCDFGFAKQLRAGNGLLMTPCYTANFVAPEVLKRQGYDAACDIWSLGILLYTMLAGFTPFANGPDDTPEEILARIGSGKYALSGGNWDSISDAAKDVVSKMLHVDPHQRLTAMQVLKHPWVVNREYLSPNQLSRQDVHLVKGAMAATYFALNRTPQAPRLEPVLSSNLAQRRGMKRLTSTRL
- test: Inhibition of RSK3 domain 1 in human NCI-H929 cells at 10 uM by mass spectroscopic analysis relative to control
- Type: cell-based

>  <test-smiles>
Nc1ncc(-c2cccc3ncsc23)cc1-c1ccc2c(c1)CCNC2=O

>  <inhibition / %>
0

$$$$
>  <test-smiles>
CN(C1CC1)S(=O)(=O)c1ccc(-c2cnc(N)c(-c3ccc4c(c3)CCNC4=O)c2)c(F)c1

>  <inhibition / %>
0

$$$$
>  <test-smiles>
COc1cc(NS(=O)(=O)C2CC2)ccc1-c1cnc(N)c(-c2ccc3c(c2)CCNC3=O)c1

>  <inhibition / %>
0

$$$$
>  <test-smiles>
Nc1ncc(-c2ccc(NS(=O)(=O)C3CC3)cc2OC2CCCCC2)cc1-c1ccc2c(c1)CCNC2=O

>  <inhibition / %>
50

$$$$
>  <test-smiles>
Nc1ncc(-c2ccc(NS(=O)(=O)C3CC3)cc2F)cc1-c1ccc2c(c1)CCNC2=O

>  <inhibition / %>
0

$$$$

###

- target-system: Serine/threonine-protein kinase 4 (Homo sapiens)
- Sequence (whole entry): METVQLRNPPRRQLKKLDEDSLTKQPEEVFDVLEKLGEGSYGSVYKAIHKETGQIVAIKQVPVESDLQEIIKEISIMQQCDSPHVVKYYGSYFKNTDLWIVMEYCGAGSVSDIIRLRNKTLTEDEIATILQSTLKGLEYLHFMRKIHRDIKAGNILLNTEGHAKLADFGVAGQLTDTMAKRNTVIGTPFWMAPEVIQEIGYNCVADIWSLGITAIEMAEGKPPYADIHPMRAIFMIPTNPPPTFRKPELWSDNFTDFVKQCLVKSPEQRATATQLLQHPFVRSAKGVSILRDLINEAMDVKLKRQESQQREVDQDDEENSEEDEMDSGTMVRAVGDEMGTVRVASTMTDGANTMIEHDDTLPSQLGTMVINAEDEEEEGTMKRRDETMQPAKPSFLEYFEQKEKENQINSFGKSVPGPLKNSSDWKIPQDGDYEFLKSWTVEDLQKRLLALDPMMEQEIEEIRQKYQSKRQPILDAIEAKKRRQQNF
- test: Inhibition of STK4 (unknown origin) using fluorescein-labelled Ser/Thr-07 peptide as substrate incubated for 1 hr in presence of ATP at Km concentration by Z-LYTE assay
pIC50: −log10 of the molar value.

>  <test-smiles>
COc1cc(S(=O)(=O)N(C)C2CCCCC2)ccc1-c1cnc(N)c(-c2ccc3c(c2)CCNC3=O)c1

>  <relation-qualifier>
=

>  <pIC50>
7.40

$$$$
>  <test-smiles>
Nc1ncc(-c2cc3scnc3cc2F)cc1-c1ccc2c(c1)CCNC2=O

>  <relation-qualifier>
=

>  <pIC50>
7.40

$$$$
>  <test-smiles>
Nc1ncc(-c2ccccc2F)cc1-c1ccc2c(c1)CCNC2=O

>  <relation-qualifier>
=

>  <pIC50>
7.40

$$$$
>  <test-smiles>
Nc1ncc(-c2cc([N+](=O)[O-])c(NCc3ccccc3)cc2F)cc1-c1ccc2c(c1)CCNC2=O

>  <relation-qualifier>
=

>  <pIC50>
7.40

$$$$
>  <test-smiles>
N#Cc1cccc(-c2cnc(N)c(-c3ccc4c(c3)CCNC4=O)c2)c1

>  <relation-qualifier>
=

>  <pIC50>
7.40

$$$$
>  <test-smiles>
Nc1ncc(-c2cnccc2F)cc1-c1ccc2c(c1)CCNC2=O

>  <relation-qualifier>
=

>  <pIC50>
6.70

$$$$
>  <test-smiles>
COc1cc(S(=O)(=O)NC2CC2)ccc1-c1cnc(N)c(-c2ccc3c(c2)CCNC3=O)c1

>  <relation-qualifier>
>

>  <pIC50>
7.40

$$$$
>  <test-smiles>
NC(=O)c1ccc(-c2cc(-c3cc([N+](=O)[O-])ccc3F)cnc2N)cc1

>  <relation-qualifier>
=

>  <pIC50>
6.70

$$$$
>  <test-smiles>
CN(C1CC1)S(=O)(=O)c1ccc(-c2cnc(N)c(-c3ccc4c(c3)CCNC4=O)c2)cc1

>  <relation-qualifier>
>

>  <pIC50>
7.40

$$$$
